tested on: PPARg DBDmut:RXRa IVT, anti-PPARg (DBD mutation: PPARg1 K132A/R137A, NR concentration 270 nM, RXRa partner concentration 90 nM); assay: PBM binding z-score (relative to random genomic background probes); higher = stronger binding; sequences stand for … in GC…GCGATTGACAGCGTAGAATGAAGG
Parameter threshold = -0.05. Response is True when PBM binding z-score meets or exceeds it, else False.

Field: example entries. Status: answers known.
{"sequence entry": "TAGCCTAGGTCATAGGCCAGTATACCACGCGAAC", "label": "True"}
{"sequence entry": "CGTCCAAGGTCAGAGAGGTCAGTGTATGCCGAGT", "label": "True"}
{"sequence entry": "CCTACTGGGCCAAAGGACATTGATTCCAATGCTC", "label": "False"}
{"sequence entry": "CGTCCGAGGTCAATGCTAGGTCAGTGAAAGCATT", "label": "False"}

I'd appreciate it if you could say whether `GATACAGGGTCATCTAGAGGCCAGAGTATGGAAA` has PBM binding z-score at least equal to -0.05.
True

Check the entry `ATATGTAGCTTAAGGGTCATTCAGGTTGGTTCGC` : does PBM binding z-score equal or exceed -0.05?
True

Recorded values, source the supplement of paper PMC6555819.
